Hello, the source for this data is ChEMBL document CHEMBL1144028, in case you need it.

# Experimental Details: Clearance in Sprague-Dawley rat at 0.5 mg/kg, iv
# Assay type: ADME, organism-based
# Set-up: dose 0.5 mg/kg, route intravenous
# Settings: in vivo
Measured Property: clearance (mL/min/kg)
Number in mL/min/kg, nothing else.

COc1cc2nccc(Oc3ccc4c(c3)OCCN4C(=O)N[C@@H](C)c3ccccc3)c2cc1OC; 16.3

Continue with the molecule presented below.
State its clearance for this molecule: `COc1cc2nccc(Oc3ccc4c(c3)OCCN4C(=O)Nc3ccc(Cl)cc3)c2cc1OC`
4

###

# Experimental Details: Solubility in 0.01 N HCl
# Assay type: physicochemical
# Settings: 0.01 N HCl; read-out: Solubility
Measured Property: solubility

COc1cc2nccc(Oc3ccc4c(C(=O)NC(C)C)cccc4c3)c2cc1OC; > 200 µg/mL
CNC(=O)N1CCOc2cc(Oc3ccnc4cc(OC)c(OC)cc34)ccc21; > 200 µg/mL
COc1cc2nccc(Oc3ccc4c(C(=O)Nc5cccc(Cl)c5)cccc4c3)c2cc1OC; 9.5 µg/mL

State its solubility for this compound: `CNC(=O)c1cccc2cc(Oc3ccnc4cc(OC)c(OC)cc34)ccc12`
> 200 µg/mL

State its solubility for this compound: `COc1cc2nccc(Oc3ccc4c(C(=O)Nc5ccc(F)cc5)cccc4c3)c2cc1OC`
67 µg/mL

###

# Experimental Details: AUC (0 to infinity) in Sprague-Dawley rat at 2 mg/kg, po
# Assay type: ADME, organism-based
# Set-up: time infinity, dose 2 mg/kg, route oral
# Settings: plasma
So basically: is AUC(0-inf) under 1000 ng·h/mL? Then 1.0. Not under? Then 0.0.

Example entries and their recorded answers appear below.
COc1cc2nccc(Oc3ccc4c(c3)OCCN4C(=O)Nc3ccc(C)cc3)c2cc1OC; 0.0
COc1cc2nccc(Oc3ccc4c(c3)OCCN4C(=O)Nc3ccc(Cl)cc3)c2cc1C(N)=O; 0.0
COc1cc2nccc(Oc3ccc4c(c3)OCCN4C(=O)Nc3ccc(Cl)cc3)c2cc1OC; 0.0
COc1cc2nccc(Oc3ccc4c(c3)OCCN4C(=O)Nc3ccc(F)cc3)c2cc1OC; 0.0

Attention now turns to another entry.
# strict comparison: is reported AUC(0-inf) < 1000 ng·h/mL? input = `COc1cc2nccc(Oc3ccc4c(c3)OCCN4C(=O)Nc3ccc(C)cc3)c2cc1C(N)=O`
1.0

###

This document collects pIC50 values reported for Vascular endothelial growth factor receptor 2 (Homo sapiens, UniProt P35968).
Quick note: pIC50 means taking -log10 of the concentration in moles per liter.

O=C(Nc1ccc(Cl)cc1)N1CCOc2cc(Oc3ncnc4[nH]ccc34)ccc21; 7.11
COc1cc2nccc(Oc3ccc4c(c3)OCCN4C(=O)Nc3cccc(Cl)c3)c2cc1OC; 9.00
COc1cc2nccc(Oc3ccc4c(c3)OCCN4C(N)=O)c2cc1OC; 7.24
COc1cc2nccc(Oc3ccc4c(c3)OCCN4C(=O)Nc3ccccc3)c2cc1OC; 9.00
COc1cc2nccc(Oc3ccc4c(c3)OCCN4C(=O)Nc3ccc(F)cc3)c2cc1OC; 8.52

Report its pIC50 with Vascular endothelial growth factor receptor 2 (Homo sapiens, UniProt P35968) as the test system: `COc1cc2nccc(Oc3ccc4c(c3)OCCN4C(=O)Nc3ccc(C)cc3)c2cc1C(N)=O`
Sequence (P35968 whole entry): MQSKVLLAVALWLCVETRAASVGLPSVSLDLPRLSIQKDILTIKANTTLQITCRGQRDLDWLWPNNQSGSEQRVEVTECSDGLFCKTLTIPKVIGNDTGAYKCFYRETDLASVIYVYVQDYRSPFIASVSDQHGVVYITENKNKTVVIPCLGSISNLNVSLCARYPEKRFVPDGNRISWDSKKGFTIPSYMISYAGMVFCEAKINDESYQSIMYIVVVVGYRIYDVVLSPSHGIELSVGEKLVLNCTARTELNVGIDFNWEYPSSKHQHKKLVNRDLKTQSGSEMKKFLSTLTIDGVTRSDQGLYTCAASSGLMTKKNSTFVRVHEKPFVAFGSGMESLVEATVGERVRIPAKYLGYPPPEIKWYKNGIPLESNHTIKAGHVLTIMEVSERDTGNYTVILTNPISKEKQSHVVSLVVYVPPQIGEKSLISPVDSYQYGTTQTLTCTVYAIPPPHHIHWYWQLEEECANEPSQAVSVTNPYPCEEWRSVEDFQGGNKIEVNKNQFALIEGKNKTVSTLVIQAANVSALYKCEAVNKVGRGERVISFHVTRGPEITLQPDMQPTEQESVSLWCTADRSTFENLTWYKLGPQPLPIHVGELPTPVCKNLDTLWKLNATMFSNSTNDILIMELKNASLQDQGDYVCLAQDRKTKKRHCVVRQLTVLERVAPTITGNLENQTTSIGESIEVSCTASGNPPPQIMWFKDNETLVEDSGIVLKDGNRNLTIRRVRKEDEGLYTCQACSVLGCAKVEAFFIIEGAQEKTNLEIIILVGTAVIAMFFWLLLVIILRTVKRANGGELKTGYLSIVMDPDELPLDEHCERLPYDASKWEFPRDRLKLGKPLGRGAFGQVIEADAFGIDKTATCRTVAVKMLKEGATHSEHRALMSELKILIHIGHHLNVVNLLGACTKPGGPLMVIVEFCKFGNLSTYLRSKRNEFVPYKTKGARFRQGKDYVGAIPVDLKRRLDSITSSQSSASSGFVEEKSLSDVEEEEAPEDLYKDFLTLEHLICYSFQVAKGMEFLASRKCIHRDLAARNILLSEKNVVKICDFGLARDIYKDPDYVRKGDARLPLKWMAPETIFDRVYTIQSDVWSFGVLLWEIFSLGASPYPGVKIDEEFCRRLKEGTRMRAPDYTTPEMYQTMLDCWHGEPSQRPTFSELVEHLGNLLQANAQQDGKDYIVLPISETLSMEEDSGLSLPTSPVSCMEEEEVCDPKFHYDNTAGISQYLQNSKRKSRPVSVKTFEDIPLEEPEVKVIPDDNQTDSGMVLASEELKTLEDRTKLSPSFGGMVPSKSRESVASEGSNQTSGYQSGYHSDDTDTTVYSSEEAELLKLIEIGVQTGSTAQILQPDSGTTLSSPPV
9.30

Report its pIC50 with Vascular endothelial growth factor receptor 2 (Homo sapiens, UniProt P35968) as the test system: `COc1cc2nccc(Oc3ccc4c(c3)OCCN4C(=O)N[C@@H](C)c3ccccc3)c2cc1OC`
9.00

Report its pIC50 with Vascular endothelial growth factor receptor 2 (Homo sapiens, UniProt P35968) as the test system: `COc1cc2nccc(Oc3ccc4c(c3)OCCN4C(=O)NC(C)C)c2cc1OC`
7.40
